tested on: SW-620; assay: NCI tumour cell line growth inhibition, 48 h
The source made the active and inactive calls. No stated cut-off is given here; in the data, active = GI50 up to about 1.1 µM and inactive = higher.
Please go through the items and note down their GI50.

Quick check: GI50 of CC(=O)OC1(C)N=NC2(CCCCC2)O1 (configuration not stated) ?
> 100 µM (inactive)

Quick check: GI50 of O=C(N[C@H]1CCC[C@H]1C(=O)Nc1ccc(C(F)(F)F)cc1)OCc1ccccc1 ?
> 100 µM (inactive)

Quick check: GI50 of NC(=O)C12CC3CC(CC(Br)(C3)C1)C2 ?
> 100 µM (inactive)

Quick check: GI50 of COc1nc(=O)cc(N)n1C1OC(CO)C(O)C1O (configuration not stated) ?
> 100 µM (inactive)

Quick check: GI50 of O=C(O)c1ccc(Nc2ccnc3cc(Cl)ccc23)cc1O ?
> 100 µM (inactive)

Quick check: GI50 of O=C(Nc1nncs1)NS(=O)(=O)n1c(=S)sc2ccccc21 ?
> 100 µM (inactive)

Quick check: GI50 of O=C1C(C(O)(C(F)(F)F)C(F)(F)F)CCC1C(O)(C(F)(F)F)C(F)(F)F (configuration not stated) ?
5.89 µM (inactive)

Quick check: GI50 of COc1cccc(/C=C2\CCCc3ccccc3C2=O)c1 ?
17.3 µM (inactive)

Quick check: GI50 of CCNc1ccc2c(c1)Cc1ccccc1-2 ?
83.6 µM (inactive)

Quick check: GI50 of COc1ccc(/C=C\c2cc(OC)c(OC(C)=O)c(OC)c2)cc1 ?
11.1 µM (inactive)

Quick check: GI50 of C/C(=C/c1ccccc1)CN(C(=O)/C=C\Sc1ccccc1)C(C)(C)C ?
> 100 µM (inactive)

Quick check: GI50 of O=C(O)CSc1nnc(Cc2ccccc2)[nH]1 ?
> 100 µM (inactive)
